EC50 listing for selected substances.
target: hGIPR (Homo sapiens, UniProt P48546); experiment: Functional cAMP activity in the presence of 1% HSA; assay type: cell-based; details: read-out: cAMP Rel EC50, hGIPR
Sequence (P48546 22-466): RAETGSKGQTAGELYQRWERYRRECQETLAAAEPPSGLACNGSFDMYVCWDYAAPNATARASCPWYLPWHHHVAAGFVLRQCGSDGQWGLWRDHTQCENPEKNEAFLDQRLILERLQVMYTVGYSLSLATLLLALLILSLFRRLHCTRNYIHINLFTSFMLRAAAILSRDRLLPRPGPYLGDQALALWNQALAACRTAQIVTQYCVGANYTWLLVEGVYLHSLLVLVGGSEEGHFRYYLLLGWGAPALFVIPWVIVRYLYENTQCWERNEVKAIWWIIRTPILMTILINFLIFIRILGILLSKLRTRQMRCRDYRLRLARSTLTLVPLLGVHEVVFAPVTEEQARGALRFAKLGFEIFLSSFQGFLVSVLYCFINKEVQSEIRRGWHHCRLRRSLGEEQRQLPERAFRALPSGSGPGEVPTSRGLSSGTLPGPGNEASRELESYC
Starred links: 1 amine or outer side, 2 acyl side, 3 side chain; linkers in the order of their positions; H or OH if unused. Non-standard residues stand in square brackets, D forms with d. Groups on a side chain read outwards from the residue. *: point of attachment. C18 diacid = O=C(O)CCCCCCCCCCCCCCCCC(=O)*; γGlu = O=C(O)[C@H](CCC(=O)[*:2])N[*:1]; αMe4Pal = C[C@](N)(Cc1ccncc1)C(=O)O; αMeY = C[C@](N)(Cc1ccc(O)cc1)C(=O)O; 4Pal = N[C@@H](Cc1ccncc1)C(=O)O; αMeL = CC(C)C[C@](C)(N)C(=O)O; Orn = NCCC[C@H](N)C(=O)O; AEEA = NCCOCCOCC(=O)O; Aib = CC(C)(N)C(=O)O

SUBSTANCE: H-Y[Aib]QGTFTSDFS[Orn][αMeL]LDKK([AEEA-AEEA-γGlu-C18 diacid])AQ[Aib]AFIEYLLE[Aib]GPSSGEPPPSGT-NH2 [Example 167]
TARGET_SYSTEM: hGIPR (Homo sapiens, UniProt P48546)
EC50 / nM: 24.7

SUBSTANCE: H-Y[Aib]QGTFTSD[4Pal]SR[αMeL]LDKK([AEEA-γGlu-C18 diacid])AQ[αMe4Pal]AFIE[αMe4Pal]LIEGGPSSGAPPPSGSEE-NH2 [Example 956]
TARGET_SYSTEM: hGIPR (Homo sapiens, UniProt P48546)
EC50 / nM: 32.1

SUBSTANCE: H-Y[Aib]QGTFTSD[4Pal]S[Orn][αMeL]LD[Orn]K([γGlu-γGlu-C18 diacid])AQ[Aib]AFIE[αMeY]LLEGGPSSGAPPPSGSEE-NH2 [Example 1064]
TARGET_SYSTEM: hGIPR (Homo sapiens, UniProt P48546)
EC50 / nM: 62.5

Reference source for all entries: patent US20240270821A1
